Hello, the source for this data is patent US5990170A, in case you need it.

# ASSAY TEXT: Solubility in water and organic solvents
# CONDITIONS USED: dmso, organic solvent or mixture
Entries annotated with measured solubility

>  <MOLECULE>
CCCCCCCCCCCCCCCC(=O)NC(CO)CO

>  <solubility>
> 5000 µg/mL

$$$$
>  <MOLECULE>
CCCCCCCCCCCCCCCC(=O)NCCOP(=O)(O)O [Example 27, N-palmitoylethanolamide phosphate]

>  <solubility>
> 10000 µg/mL

$$$$
>  <MOLECULE>
O=C(/C=C/CCCCCCCCC(=O)N1CCOCC1)N1CCOCC1

>  <solubility>
> 10000 µg/mL

$$$$
>  <MOLECULE>
CCCCCCCC/C=C\CCCCCCCC(=O)NCc1ccc(O)c(OC)c1

>  <solubility>
> 10000 µg/mL

$$$$
>  <MOLECULE>
CCCCCCCCCCCCCCCC(=O)N[C@H](C)CO [Example 30, N-palmitoyl-[R(-)-2-amino-1-propanol]]

>  <solubility>
> 5000 µg/mL

$$$$

Proceeding to the next molecule to report its solubility.
query: Reported solubility, molecule CCCCCCCCCCCCCCCC(=O)NCC(O)c1ccccc1 (stereo not drawn) : ____
result: > 10000 µg/mL
